Entry source: patent US20240180948A1

Experiment: Mouse plasma PK, single dose PO or IP
Conditions: female, ICR (CD-1), ip, 10 mg/kg
propertyMeasured: half-life (h)
Express your answer in h, writing the number without its unit.

Reported half-life for O=c1ccn([C@@H]2O[C@](F)(CO)[C@@H](O)[C@H]2O)c(=O)[nH]1 [EIDD-02749] : what is it?
6.3

====

Test: Mouse plasma PK, single dose PO or IP
Conditions: female, ICR (CD-1), po, 150 mg/kg
propertyMeasured: AUC(0-inf) (µM·h)
Express your answer in µM·h, writing the number without its unit.

Reported AUC(0-inf) for O=c1ccn([C@@H]2O[C@](F)(CO)[C@@H](O)[C@H]2O)c(=O)[nH]1 : what is it?
392

====

Experiment: Mouse plasma PK, single dose PO or IP
Conditions: female, ICR (CD-1), po, 500 mg/kg
propertyMeasured: half-life (h)
Express your answer in h, writing the number without its unit.

Reported half-life for O=c1ccn([C@@H]2O[C@](F)(CO)[C@@H](O)[C@H]2O)c(=O)[nH]1 [EIDD-02749] : what is it?
12.9

====

Assay: Mouse plasma PK, single dose PO or IP
Conditions: female, ICR (CD-1), po, 50 mg/kg
propertyMeasured: AUC(0-inf) (µM·h)
Express your answer in µM·h, writing the number without its unit.

Reported AUC(0-inf) for O=c1ccn([C@@H]2O[C@](F)(CO)[C@@H](O)[C@H]2O)c(=O)[nH]1 : what is it?
232

====

Assay: Mouse plasma PK, single dose PO or IP
Settings: female, ICR (CD-1), po, 500 mg/kg
propertyMeasured: AUC(0-inf)
Express your answer as a number followed by its unit.

Reported AUC(0-inf) for O=c1ccn([C@@H]2O[C@](F)(CO)[C@@H](O)[C@H]2O)c(=O)[nH]1 [EIDD-02749] : what is it?
755 µM·h

====

Test: Mouse plasma PK, single dose PO or IP
Conditions: female, ICR (CD-1), po, 500 mg/kg
propertyMeasured: bioavailability (%)
Express your answer in %, writing the number without its unit.

Reported bioavailability for O=c1ccn([C@@H]2O[C@](F)(CO)[C@@H](O)[C@H]2O)c(=O)[nH]1 [EIDD-02749] : what is it?
77

====

Test: Plasma stability, human
Conditions: both
propertyMeasured: half-life at 1 μM (min)
Express your answer in min, writing the number without its unit.

Reported half-life at 1 μM for CC(C)C(=O)OC[C@@]1(F)O[C@@H](n2ccc(=O)[nH]c2=O)[C@H](OC(=O)C(C)C)[C@@H]1OC(=O)C(C)C [EIDD-2954] : what is it?
2

Reported half-life at 1 μM for CC(C)[C@H](N)C(=O)OC[C@@]1(F)O[C@@H](n2ccc(=O)[nH]c2=O)[C@H](O)[C@@H]1O.Cl [EIDD-2971] : what is it?
81

Reported half-life at 1 μM for CC(C)C(=O)OC[C@@]1(F)OC(n2ccc(=O)[nH]c2=O)C(O)[C@@H]1O (stereo partly shown) [EIDD-2947] : what is it?
2

Reported half-life at 1 μM for O=c1ccn([C@@H]2O[C@](F)(CO)[C@@H](O)[C@H]2O)c(=O)[nH]1 [EIDD-02749] : what is it?
26

====

Experiment: Liver microsome stability, rat
Conditions: male, Sprague-Dawley, liver microsomes, pH 7.4
propertyMeasured: half-life at 1 μM

Reported half-life at 1 μM for CC(C)C(=O)OC[C@@]1(F)OC(n2ccc(=O)[nH]c2=O)C(O)[C@@H]1O (stereo partly shown) : what is it?
10 min

Reported half-life at 1 μM for CC(C)C(=O)OC[C@@]1(F)O[C@@H](n2ccc(=O)[nH]c2=O)[C@H](OC(=O)C(C)C)[C@@H]1OC(=O)C(C)C : what is it?
< 1 min

Reported half-life at 1 μM for CC(C)[C@H](N)C(=O)OC[C@@]1(F)O[C@@H](n2ccc(=O)[nH]c2=O)[C@H](O)[C@@H]1O.Cl : what is it?
33 min

Reported half-life at 1 μM for O=c1ccn([C@@H]2O[C@](F)(CO)[C@@H](O)[C@H]2O)c(=O)[nH]1 : what is it?
25 min

====

Test: Mouse plasma PK, single dose PO or IP
Settings: female, ICR (CD-1), ip, 10 mg/kg
propertyMeasured: AUC(0-inf) (µM·h)
Express your answer in µM·h, writing the number without its unit.

Reported AUC(0-inf) for O=c1ccn([C@@H]2O[C@](F)(CO)[C@@H](O)[C@H]2O)c(=O)[nH]1 : what is it?
19.6

====

Assay: Plasma stability, mouse
Details: male, CD-1, mouse
propertyMeasured: half-life at 1 μM

Reported half-life at 1 μM for O=c1ccn([C@@H]2O[C@](F)(CO)[C@@H](O)[C@H]2O)c(=O)[nH]1 : what is it?
37 min

Reported half-life at 1 μM for CC(C)C(=O)OC[C@@]1(F)OC(n2ccc(=O)[nH]c2=O)C(O)[C@@H]1O (stereo partly shown) : what is it?
1 min

Reported half-life at 1 μM for CC(C)[C@H](N)C(=O)OC[C@@]1(F)O[C@@H](n2ccc(=O)[nH]c2=O)[C@H](O)[C@@H]1O.Cl : what is it?
59 min

Reported half-life at 1 μM for CC(C)C(=O)OC[C@@]1(F)O[C@@H](n2ccc(=O)[nH]c2=O)[C@H](OC(=O)C(C)C)[C@@H]1OC(=O)C(C)C : what is it?
1 min

====

Test: Plasma stability, rat
Conditions: male, Sprague-Dawley
propertyMeasured: half-life at 1 μM (min)
Express your answer in min, writing the number without its unit.

Reported half-life at 1 μM for CC(C)[C@H](N)C(=O)OC[C@@]1(F)O[C@@H](n2ccc(=O)[nH]c2=O)[C@H](O)[C@@H]1O.Cl [EIDD-2971] : what is it?
50

Reported half-life at 1 μM for O=c1ccn([C@@H]2O[C@](F)(CO)[C@@H](O)[C@H]2O)c(=O)[nH]1 [EIDD-02749] : what is it?
22

Reported half-life at 1 μM for CC(C)C(=O)OC[C@@]1(F)O[C@@H](n2ccc(=O)[nH]c2=O)[C@H](OC(=O)C(C)C)[C@@H]1OC(=O)C(C)C [EIDD-2954] : what is it?
1

Reported half-life at 1 μM for CC(C)C(=O)OC[C@@]1(F)OC(n2ccc(=O)[nH]c2=O)C(O)[C@@H]1O (stereo partly shown) [EIDD-2947] : what is it?
9

====

Assay: Mouse plasma PK, single dose PO or IP
Conditions: female, ICR (CD-1), po, 50 mg/kg
propertyMeasured: bioavailability (%)
Express your answer in %, writing the number without its unit.

Reported bioavailability for O=c1ccn([C@@H]2O[C@](F)(CO)[C@@H](O)[C@H]2O)c(=O)[nH]1 [EIDD-02749] : what is it?
236

====

Assay: Mouse plasma PK, single dose PO or IP
Conditions: female, ICR (CD-1), po, 150 mg/kg
propertyMeasured: half-life (h)
Express your answer in h, writing the number without its unit.

Reported half-life for O=c1ccn([C@@H]2O[C@](F)(CO)[C@@H](O)[C@H]2O)c(=O)[nH]1 : what is it?
8.5

====

Test: Liver microsome stability, mouse
Conditions: male, CD-1, mouse, liver microsomes, pH 7.4
Consider the following molecules; for each one, report its half-life at 1 μM.
Express your answer in min, writing the number without its unit.

Reported half-life at 1 μM for CC(C)[C@H](N)C(=O)OC[C@@]1(F)O[C@@H](n2ccc(=O)[nH]c2=O)[C@H](O)[C@@H]1O.Cl : what is it?
11

Reported half-life at 1 μM for O=c1ccn([C@@H]2O[C@](F)(CO)[C@@H](O)[C@H]2O)c(=O)[nH]1 : what is it?
27

Reported half-life at 1 μM for CC(C)C(=O)OC[C@@]1(F)OC(n2ccc(=O)[nH]c2=O)C(O)[C@@H]1O (stereo partly shown) : what is it?
1
